Measured values drawn from patent US20220396565A1 for this set.

Test system: Acinetobacter baumannii ATCC17961
assay procedure: Antimicrobial susceptibility testing: 90% growth inhibitory concentration (IC90) determination, Iso-Sensitest broth
Assay type: cell-based
experimental parameters: Acinetobacter baumannii, ATCC17961, 90% growth inhibitory concentration, Acinetobacter baumannii ATCC17961, Iso-Sensitest broth; read-out: ATCC 17961 IC90
Structures can show the parent of a compound that is named as a salt.
observable: IC90 (nM)

                                   compound  meas_value
0  CN(C)C1CN(C(=O)C2CCN(C(=O)c3ccc(NC(=O)c4ncc(-c5ccc(OC(F)F)c(F)c5F)n4C)cc3Cl)CC2)C1          90
1  CCOc1ccc(-c2cnc(C(=O)Nc3ccc(C(=O)N4CCN(C(=O)C5(O)CCNCC5)CC4)c(Cl)c3)n2C)c(F)c1F [Example 170, formate]          60
2  Cn1c(-c2ccc(OCC#N)c(F)c2Cl)cnc1C(=O)Nc1ccc(C(=O)N2CCN(C(=O)[C@@H]3CCNC3)CC2)c(Cl)c1 [Example 254, formate]          40
3  COc1ccc(-c2cnc(C(=O)Nc3ccc(C(=O)N4CCC(C(=O)N[C@H]5[C@@H]6CNC[C@@H]65)CC4)c(Cl)c3)n2C)c(F)c1F          50

(P) COc1ccc(-c2cnc(C(=O)Nc3ccc(C(=O)N4CCN(C(=O)CCCC[C@@H]5SC[C@@H]6NC(=O)N[C@@H]65)CC4)c(Cl)c3)n2C)c(F)c1F
(Q) COc1ccc(-c2cnc(C(=O)Nc3ccc(C(=O)N4CCN(C(=O)CCC#N)CC4)c(Cl)c3)n2C)c(F)c1F
# argmax over IC90 for candidates P and Q Reply briefly: the label of your chosen item. P
(P: 260 nM, Q: 100 nM)

----------
Test system: Acinetobacter baumannii ATCC17961
assay procedure: Antimicrobial susceptibility testing: 90% growth inhibitory concentration (IC90) determination, Iso-Sensitest broth
Format: cell-based
experimental parameters: Acinetobacter baumannii, ATCC17961, 90% growth inhibitory concentration, Acinetobacter baumannii ATCC17961, Iso-Sensitest broth; read-out: ATCC 17961 IC90
Structures can show the parent of a compound that is named as a salt.
observable: IC90 (nM)

// known answers, use as guide
molecule	IC90, nM
Cn1c(-c2ccc(OCF)cc2F)cnc1C(=O)Nc1ccc(C(=O)N2CCN(C(=O)N3CC[C@@H](N)C3)CC2)c(Cl)c1 [Example 26, formate]	30
COc1ccc(-c2cnc(C(=O)Nc3ccc(C(=O)N4CCC(OCCN)CC4)c(Cl)c3)n2C)c(F)c1F [Example 22, formate]	40
Cn1c(-c2ccc(OC(F)F)c(F)c2F)cnc1C(=O)Nc1ccc(C(=O)N2CCN(C(=O)C3CCN(CC(N)=O)CC3)CC2)c(Cl)c1 [Example 289]	70
COc1ccc(-c2cnc(C(=O)Nc3ccc(C(=O)N4CC(NC(=O)CN)C4)c(Cl)c3)n2C)c(F)c1F [Example 217, formate]	90

(1) CN(C)CC(=O)N1CCN(C(=O)c2ccc(NC(=O)c3ncc(-c4ccc(OC(F)F)c(F)c4)n3C)cc2Cl)CC1 [Example 176, formate]
(2) COc1ccc(-c2cnc(C(=O)Nc3ccc(C(=O)N4CCN(C(=O)CC5CNC(=O)C5)CC4)c(Cl)c3)n2C)c(F)c1F (stereo not drawn) [Example 129]
(3) Cn1c(-c2ccc(F)c(F)c2F)cnc1C(=O)Nc1ccc(C(=O)N2CCN(C(=O)C3CCNCC3)CC2)c(Cl)c1 [Example 191, formate]
Put the items in order so that reported IC90 rises from first to last. Form field (ranking): labels in requested order. 2, 1, 3
(2: 40 nM, 1: 80 nM, 3: 230 nM)

(I) COc1ccc(-c2cnc(C(=O)Nc3ccc(C(=O)N4CCN(C(=O)C5CCC(=O)N5)CC4)c(Cl)c3)n2C)c(F)c1F (stereo not drawn) [Example 126]
(II) COc1ccc(-c2cnc(C(=O)Nc3ccc(C(=O)N4CCN(C(=O)CCCNC(=N)N)CC4)c(Cl)c3)n2C)c(F)c1F [Example 135, formate]
# argmax over IC90 for candidates I and II Reply briefly: the label of your chosen item. I
(I: 110 nM, II: 30 nM)

(A) COc1ccc(-c2cnc(C(=O)Nc3ccc(C(=O)N4CCN(C(=O)CCOCCOCCN)CC4)c(Cl)c3)n2C)c(F)c1F [Example 131, formate]
(B) COc1ccc(-c2cnc(C(=O)Nc3ccc(C(=O)N4CCC(C(=O)N[C@@H]5CCNC5)CC4)c(Cl)c3)n2C)c(F)c1F [Example 64, formate]
// compare measured IC90 between A and B ; output the lower one Reply briefly: the label of your chosen item. B
(B: 60 nM, A: 90 nM)

----------
Tested on: Acinetobacter baumannii ATCC17978
assay procedure: Antimicrobial susceptibility testing: 90% growth inhibitory concentration (IC90) determination, Iso-Sensitest broth
Assay type: cell-based
experimental parameters: 90% growth inhibitory concentration, Acinetobacter baumannii ATCC17978, Iso-Sensitest broth; read-out: ATCC 17978 IC90
Where a name gives a salt, the structure may show the parent alone.
observable: IC90 (nM)

// known answers, use as guide
compound	unit spec	IC90
COc1ccc(-c2cnc(C(=O)Nc3ccc(C(=O)N4CCN(C(=O)C5(O)CCNCC5)CC4)c(Cl)c3)n2C)c(Cl)c1F [Example 113, formate]	nM	80
Cn1c(-c2ccc(OCC#N)c(F)c2F)cnc1C(=O)Nc1ccc(C(=O)N2CCC(C(=O)N3CCN[C@@H](CO)C3)CC2)c(Cl)c1 [Example 81, 2,2,2-trifluoroacetate]	nM	70
CNCC(=O)N1CCN(C(=O)c2ccc(NC(=O)c3ncc(-c4ccc(OCC#N)c(F)c4F)n3C)cc2Cl)CC1 [Example 205, formate]	nM	60
Cn1c(-c2ccc(OCC#N)c(F)c2F)cnc1C(=O)Nc1ccc(C(=O)N2CCN(C(=O)[C@@H]3C[C@H](O)CN3)CC2)c(Cl)c1 [Example 201, formate]	nM	50
COc1ccc(-c2cnc(C(=O)Nc3ccc(C(=O)N4CCN(C(=O)[C@H]5C[C@@H](O)CN5)CC4)c(Cl)c3)n2C)c(Cl)c1F [Example 115, formate]	nM	140

(1) Cn1c(-c2ccc(OCC#N)c(F)c2F)cnc1C(=O)Nc1ccc(C(=O)N2CCC(C(=O)N3CC[C@@H](N)C3)CC2)c(Cl)c1 [Example 80, formate]
(2) Cc1cc(NC(=O)c2ncc(-c3ccc(OCC#N)c(F)c3F)n2C)ccc1C(=O)N1CCC(C(=O)N2CCOCC2)CC1
// compare measured IC90 between 1 and 2 ; output the lower one Reply briefly: the label of your chosen item. 1

----------
Test system: Acinetobacter baumannii ATCC17961
assay procedure: Antimicrobial susceptibility testing: 90% growth inhibitory concentration (IC90) determination, Iso-Sensitest broth
Format: cell-based
experimental parameters: Acinetobacter baumannii, ATCC17961, 90% growth inhibitory concentration, Acinetobacter baumannii ATCC17961, Iso-Sensitest broth; read-out: ATCC 17961 IC90
Where a name gives a salt, the structure may show the parent alone.
observable: IC90 (µM)

// known answers, use as guide
In [3]: df
Out[3]:
                                   compound  observable  meas_value
0  COc1ccc(-c2cnc(C(=O)Nc3ccc(C(=O)N4C[C@@H]5CN(C(=O)C6CCNCC6)C[C@@H]5C4)c(Cl)c3)n2C)c(F)c1F        IC90         0.1
1  COc1ccc(-c2cnc(C(=O)Nc3ccc(C(=O)N4CCN(C(=O)C5(O)CCNCC5)CC4)c(C)c3)n2C)c(Cl)c1F [Example 118, formate]        IC90        0.14
2  COc1ccc(-c2cnc(C(=O)Nc3ccc(C(=O)N4CCN(C(=O)C5CC(O)C5)CC4)c(Cl)c3)n2C)c(F)c1F (stereo not drawn)        IC90        0.11

(P) COc1ccc(-c2cnc(C(=O)Nc3ccc(C(=O)N4CCC(NC(=O)CN(C)C)CC4)c(Cl)c3)n2C)c(F)c1F
(Q) COc1ccc(-c2cnc(C(=O)Nc3ccc(C(=O)N4CCC(C(=O)N5CCN[C@H](CO)C5)CC4)c(Cl)c3)n2C)c(F)c1F
(R) COc1ccc(-c2cnc(C(=O)Nc3ccc(C(=O)N4CCN(C(=O)C[C@H]5CCCN5)CC4)c(Cl)c3)n2C)c(F)c1F [Example 152, formate]
Put the items in order so that reported IC90 rises from first to last. Form field (ranking): labels in requested order. R, P, Q
(R: 0.05 µM, P: 0.09 µM, Q: 0.19 µM)

----------
System: Acinetobacter baumannii ATCC17978
assay procedure: Antimicrobial susceptibility testing: 90% growth inhibitory concentration (IC90) determination, Iso-Sensitest broth
Type: cell-based
experimental parameters: 90% growth inhibitory concentration, Acinetobacter baumannii ATCC17978, Iso-Sensitest broth; read-out: ATCC 17978 IC90
Counter-ions that a name gives are not always drawn.
observable: IC90 (nM)

// known answers, use as guide
In [3]: df
Out[3]:
                                   molecule                      tested_target  observable  meas_value
0  COc1ccc(-c2cnc(C(=O)Nc3ccc(C(=O)N4CCN(C(=O)C5CCNCC5)CC4)c(C)c3)n2C)c(Cl)c1F [Example 117, formate]  Acinetobacter baumannii ATCC17978        IC90         150
1  CCc1cc(NC(=O)c2ncc(-c3ccc(OC(F)F)cc3)n2C)ccc1C(=O)N1CCN(CCN(C)C)CC1  Acinetobacter baumannii ATCC17978        IC90        1520
2  COc1ccc(-c2cnc(C(=O)Nc3ccc(C(=O)N4CCC(CN)CC4)c(Cl)c3)n2C)c(F)c1F [Example 16, trifluoroacetate]  Acinetobacter baumannii ATCC17978        IC90         300
3  Cn1c(-c2ccc(OCC#N)c(F)c2F)cnc1C(=O)Nc1ccc(C(=O)N2CCN(C(=O)C3CCNCC3)CC2)c(Cl)c1  Acinetobacter baumannii ATCC17978        IC90          70

(P) Cc1cc(NC(=O)c2ncc(-c3ccc(OCC#N)c(F)c3F)n2C)ccc1C(=O)N1CCN(C(=O)[C@@H]2CCNC2)CC1 [Example 203, 2,2,2-trifluoroacetate]
(Q) CCc1cc(NC(=O)c2ncc(-c3ccc(OC)c(F)c3F)n2C)ccc1C(=O)N1CCC(Cc2nc(C3CCC3)no2)CC1
# argmax over IC90 for candidates P and Q Reply briefly: the label of your chosen item. Q
